From: the METLIN SMRT retention time set (Domingo-Almenara et al. 2019)

- experiment_summary: gradient 5% acetonitrile 3 min, to 50% in 2 min, to 85% in 15 min, held 3 min, 100 µL/min
- assay_setup: column: Zorbax Extend-C18 2.1 x 50 mm; eluents: water / acetonitrile, 0.1% formic acid
Below, each of the molecules is paired with its reported RP-LC retention time value.

# smiles_string, RP-LC retention time (s)
data = [
    ("O=C1[C@H]2CN(Cc3ccccc3F)C[C@H]2C(=O)N1Cc1ccc2c(c1)OCO2", 792),
    ("CCCNS(=O)(=O)c1cc2c(cc1C)CCN2C(=O)CC", 818),
    ("CCNC(=O)c1cnn(-c2ccc(-c3nc(CC)no3)cn2)c1C", 777),
]

====

Listed here are molecules together with their documented RP-LC retention time.
- experiment_summary: gradient 5% acetonitrile 3 min, to 50% in 2 min, to 85% in 15 min, held 3 min, 100 µL/min
- assay_setup: column: Zorbax Extend-C18 2.1 x 50 mm; eluents: water / acetonitrile, 0.1% formic acid

# molecule, RP-LC retention time [s]
data = [
    ("COc1cc(Cl)ccc1-c1nc(-c2ccc3oc(C)nc3c2)no1", 1140),
    ("Cc1nn(C)c(C)c1S(=O)(=O)N1CCC(OCCOCc2ccccc2)CC1", 896),
    ("COc1cccc(CNC(=O)NCCC2CCN(S(=O)(=O)c3ccc(C)cc3)CC2)c1", 873),
    ("O=C(Cn1cccn1)NCc1ccc(OCc2ccccc2)cc1", 776),
    ("COc1ccc(C2(C(=O)N3CC(F)(F)C[C@H]3CN3CCN(C)CC3)CC2)cc1", 641),
    ("COc1cc(Nc2nc3c(s2)CCCC3c2ccc(F)cc2)ccc1-n1cnc(C)c1 (configuration not stated)", 1010),
    ("COc1ccc(CN(Cc2ccccc2)Cc2cc(=O)n3ccc(C)cc3n2)cc1", 681),
    ("Cc1nc(-c2csc(S(=O)(=O)N3CCC(C(=O)N4CCCCCC4)CC3)c2)no1", 859),
    ("Cc1noc(C)c1S(=O)(=O)N1CCC(c2noc(-c3ccccn3)n2)C1 (configuration not stated)", 794),
    ("Cc1cc(Br)ccc1NC(=O)CCn1c(=O)oc2ccccc21", 823),
    ("COCCNC(=O)C1CCN(S(=O)(=O)c2cc(-c3noc(C)n3)cs2)CC1", 679),
    ("COCCN1C(=O)Cc2ccccc2C1C(=O)NCc1ccc(SC)cc1 (configuration not stated)", 771),
    ("Cc1ccc(-c2nc(Cn3nnc(C(=O)NCc4ccco4)c3C)c(C)o2)cc1", 1000),
    ("Cc1cccc(-c2nnc(-c3nc(NCc4ccc(C)o4)c4ccccc4n3)o2)c1", 670),
    ("C=CCc1cc(OC)ccc1OCC(O)CN1CCN(c2ccc(OC)cc2)CC1 (configuration not stated)", 597),
    ("Cc1nc(CC(=O)NCc2ccc(C(F)(F)F)cc2)sc1C(=O)NCc1ccccc1", 805),
    ("CC(C)S(=O)(=O)c1cc2c(cc1NC(=O)c1ccccc1F)n(C)c(=O)n2C", 799),
    ("O=C1c2c(O)cc(O)cc2OC(c2ccc(O)c(O)c2)C1O (configuration not stated)", 687),
    ("CCC(=O)Nc1ccc(SCC(=O)Nc2ccc(F)c(Cl)c2)nn1", 772),
    ("CCOc1ccc(-c2cc3c(=O)n(Cc4nc(-c5cccc(C)c5)no4)ncn3n2)cc1", 1210),
    ("COc1cc(F)ccc1-c1ccnc2nc(CC(C)C)nn12", 862),
    ("Cc1nc(CC(=O)Nc2nc(-c3ccc(Cl)cc3)c(C)s2)cs1", 983),
    ("Cn1ncc(N2CCC(C(=O)N3CCN(C(=O)C4COc5ccccc5O4)CC3)CC2)cc1=O (configuration not stated)", 659),
    ("O=C(NC1CCCCCCC1)C1CCN(C(=O)c2ccc(F)cc2)CC1", 858),
    ("COc1cccc(NC(=O)N2CCC3(CC2)N=C(c2ccc(Cl)cc2)C(=O)N3)c1", 870),
    ("CCc1ccc(N2CC(c3noc(-c4cnccn4)n3)CC2=O)cc1 (configuration not stated)", 760),
    ("CSc1cccc(NC(=O)N2CCN(c3cnn4c(C5CC5)nnc4c3)CC2)c1", 694),
]

====

- experiment_summary: gradient 5% acetonitrile 3 min, to 50% in 2 min, to 85% in 15 min, held 3 min, 100 µL/min
- assay_setup: column: Zorbax Extend-C18 2.1 x 50 mm; eluents: water / acetonitrile, 0.1% formic acid
In this section, each of the molecules is paired with its reported RP-LC retention time.

# molecule, RP-LC retention time (s)
records = [
    ("CC1CCN(c2ncc(S(=O)(=O)c3ccc(C(C)C)cc3)c(N)n2)CC1", 1240),
    ("O=C(Cn1ncccc1=O)Nc1nccs1", 554),
    ("Cc1ccc(C2Cn3cnc(C(=O)N4CCC(C(=O)NCc5ccccc5Cl)CC4)c3CO2)cc1 (stereo unspecified)", 823),
    ("CC(C)CC[C@@H](O)[C@](C)(O)C1CC[C@@]2(O)C3=CC(=O)[C@]4(O)C[C@@H](O)[C@@H](O)C[C@]4(C)C3[C@H](O)C[C@]12C (stereo partly specified)", 638),
    ("O=C(NCc1ccccn1)C(=O)Nc1nccs1", 527),
    ("CCC(C(=O)NCCc1c[nH]c2ccc(C)cc12)n1c2ccccc2c2cnn(C)c(=O)c21 (stereo unspecified)", 957),
    ("O=c1c2ccccc2n(Cc2nc(-c3cccc(Br)c3)no2)c(=O)n1CC1CCCO1 (stereo unspecified)", 1150),
    ("Cc1oc(-c2[nH]ncc2C(=O)N2CCCC2)cc1S(=O)(=O)Nc1ccc(F)cc1", 705),
    ("CSc1cccc(N2C(=O)C3N=NN(Cc4nc(-c5ccc(C)c(C)c5)no4)C3C2=O)c1 (stereo unspecified)", 1100),
    ("CCN(CC)C(=O)c1ccc2c(c1)N(CC(=O)NCCN1CCN(C)CC1)C(=O)CO2", 567),
    ("Cc1ccc(S(=O)(=O)N2CCC(C(=O)NCc3csc(-c4cccs4)n3)CC2)cc1", 910),
    ("O=C(NCC1OCCc2ccccc21)C(=O)Nc1ccc(Br)cc1 (stereo unspecified)", 1070),
    ("Cc1ccc(N2CCC(NC(=O)Nc3ccccc3Cl)C2=O)cc1C (stereo unspecified)", 909),
    ("Cc1cccc(NC(=O)Cn2ccc3ccn(C)c3c2=O)c1", 772),
    ("Cc1nc2n(c(=O)c1C)CCN2CC(=O)NCc1ccccc1Cl", 652),
    ("COc1nc2ccccc2nc1N1CCCC(C(=O)NC2CCCC(C)C2C)C1 (stereo unspecified)", 1160),
    ("Cc1noc([C@@H]2CC(F)(F)CN2C(=O)c2ccoc2C)n1", 756),
    ("O=C(c1cn(-c2cc(N3CCCCC3)ncn2)cn1)N1CCC2(CC1)OCCO2", 750),
    ("CC(C)(C)c1csc(-c2csc(S(=O)(=O)NCc3ccccc3)c2)n1", 1230),
    ("O=C(NCc1cccs1)c1ccc(-n2nc(N3CCCC3)ccc2=O)cc1", 765),
    ("O=C(CN1C(=O)C2CCCCN2c2ccc(C(=O)N3CCCCC3)cc21)N1CCc2ccccc2C1 (stereo unspecified)", 921),
    ("CC(C)Oc1ccc(CNC(=O)c2nc(N3CCOCC3)c3ccccc3n2)cc1", 738),
    ("Cc1cc2[nH]c(C(=O)Nc3cc(F)c(F)c(F)c3)c(CN(C)C)c2s1", 743),
    ("O=C(Nc1ccccc1)N1CCC(N(C(=O)C2CC2)C2CCOCC2)CC1", 697),
    ("CSc1ccc(CNC(=O)Cn2cnc3nc4c(cc3c2=O)CC(C)CC4)cc1 (stereo unspecified)", 781),
    ("CC(=O)Nc1ccc(Cc2nc(-c3cccc(-c4ccnn4C)c3)no2)cc1", 874),
    ("Cc1ccc(C)c(Cn2nc3c(S(=O)(=O)N4CCN(c5ccc(F)cc5)CC4)cccn3c2=O)c1", 1050),
    ("Cc1cc2c(cc1C(=O)NCCc1c[nH]c3ccccc13)OCCCO2", 824),
    ("CCc1nc2nccc(-c3ccc(OC)cc3)n2n1", 784),
    ("COc1ccc(-c2csc(NC(=O)CS(=O)(=O)c3ccc(C)cc3)n2)c(OC)c1", 1010),
    ("CSc1ccc(-c2nc3cccc(C)n3c2Nc2ccccc2C)cc1", 808),
]

====

- experiment_summary: gradient 5% acetonitrile 3 min, to 50% in 2 min, to 85% in 15 min, held 3 min, 100 µL/min
- assay_setup: column: Zorbax Extend-C18 2.1 x 50 mm; eluents: water / acetonitrile, 0.1% formic acid
Label Yes when RP-LC retention time is at or above 700 s; anything below gets No.

# molecule, cat
rows = [
    ("Cc1cccnc1Nc1nc(-c2ccc(F)cc2)cs1", "Yes"),
    ("COCC(=O)Nc1ccccc1NC(=O)c1ccsc1", "No"),
    ("CCc1ccccc1NC(=O)Cn1nc(N2CCOCC2)c2ccccc2c1=O", "Yes"),
    ("COc1ncc(C(=O)NCCc2ccc(Cl)cc2)cn1", "Yes"),
    ("Cc1ccccc1-c1noc(N2CCC(C(=O)NCc3ccc4c(c3)OCO4)CC2)n1", "Yes"),
    ("Cn1c(C2CCN(C(=O)Nc3ccc(Cl)cc3)CC2)cc(=O)n2nccc12", "No"),
    ("O/C(=C\\Sc1nnc(COc2ccc(Cl)cc2Cl)o1)c1ccc(F)cc1", "Yes"),
    ("Cc1sc2ccn(CC(C)C)c(=O)c2c1C(=O)NC(C)c1ccc(F)cc1 (stereo unspecified)", "Yes"),
    ("CN1C(=O)CCc2cc(NS(=O)(=O)c3ccc(Br)s3)ccc21", "Yes"),
]
